Reference source for all entries: patent US7947738B2

Target: human Cacna2d1 (human calcium channel subunit α2δ1) (Homo sapiens)
Construct: 293 cells were transfected with the human Cacna2d1 expression plasmid pRK/hCacna2d1 constructed in paragraph a); expressed in transfected cells; membrane fraction
Assay: Cacna2d1/GBP binding reaction inhibitory activity (3H-GBP binding to human Cacna2d1-expressing cell membrane fraction)
Settings: IC50 (nM), concentration inhibiting 50% of Cacna2d1/GBP binding, 3H-GBP 4.5 nM, 4° C.
Procedure: 293 cells were transfected with the human Cacna2d1 expression plasmid pRK/hCacna2d1 constructed in paragraph a), and a cell line stably expressing human Cacna2d1 was obtained with human Cacna2d1 protein expression as an index. […] Each test compound was added at various concentrations to the Cacna2d1/GBP binding reaction detection assay constructed in paragraph a), and the binding level was measured by the method described in paragraph a). […]
Counter-ions that a name gives are not always drawn.
Listing of entries alongside the reported log10 of IC50.
Observable: log10 of IC50 (log10 of the value in nM)

Compound: NC[C@@]1(CC(=O)O)C[C@@H]2CC(C3CCCC3)=C[C@@H]21 (racemic)
log10 of IC50: 1.74

Compound: NC[C@]1(CC(=O)O)C[C@H]2CC=C[C@H]21 [Example 2]
log10 of IC50: 1.43

Compound: CC1=C(C)[C@H]2[C@@H](C1)C[C@@]2(CN)CC(=O)O (racemic) [Example 20, p-toluenesulfonate]
log10 of IC50: 2.00

Compound: CCCCC1=C[C@H]2[C@@H](C1)C[C@@]2(CN)CC(=O)O (racemic)
log10 of IC50: 1.45

Compound: CC(C)CC1=C[C@H]2[C@@H](C1)C[C@@]2(CN)CC(=O)O (racemic)
log10 of IC50: 1.51

Compound: CC1=C[C@H]2[C@@H](C1)C[C@@]2(CN)CC(=O)O (racemic)
log10 of IC50: 1.56

Compound: CCC(C)C1=CC2C(C1)CC2(CN)CC(=O)O (mixture of isomers)
log10 of IC50: 2.30

Compound: CSCC1=C[C@H]2[C@@H](C1)C[C@@]2(CN)CC(=O)O (racemic)
log10 of IC50: 1.93

Compound: NC[C@@]1(CC(=O)O)C[C@@H]2CC=C[C@@H]21 (racemic)
log10 of IC50: 1.71

Compound: CC(C)C1=C[C@H]2[C@@H](C1)C[C@@]2(CN)CC(=O)O (racemic)
log10 of IC50: 1.95

Compound: CCC1=C[C@@H]2[C@H](C1)C[C@]2(CN)CC(=O)O [Example 31, benzenesulfonate]
log10 of IC50: 1.15

Compound: CC1C=C[C@@H]2[C@H]1C[C@@]2(CN)CC(=O)O (mixture of isomers)
log10 of IC50: 2.08

Compound: C=CCC1=C[C@H]2[C@@H](C1)C[C@@]2(CN)CC(=O)O (racemic)
log10 of IC50: 1.86

Compound: CCC1=C[C@@H]2[C@H](C1)C[C@]2(CN)CC(=O)O (single isomer, unassigned) [Example 21]
log10 of IC50: 1.15

Compound: Cl.NC[C@]1(CC(=O)O)C[C@H]2CC=C[C@H]21 [Example 6, benzenesulfonate]
log10 of IC50: 1.41

Compound: NC[C@]1(CC(=O)O)C[C@H]2CC=C[C@H]21 [Example 5, hydrochloride]
log10 of IC50: 1.38

Compound: CCC1=C[C@H]2[C@@H](C1)C[C@@]2(CN)CC(=O)O (racemic) [Example 8]
log10 of IC50: 1.45

---

target: human Cacna2d1 (human calcium channel subunit α2δ1) (Homo sapiens, UniProt P54289); construct: 293 cells were transfected with the human Cacna2d1 expression plasmid pRK/hCacna2d1 constructed in paragraph a); expressed in transfected cells; membrane fraction; test: Cacna2d1/GBP binding reaction inhibitory activity (3H-GBP binding to human Cacna2d1-expressing cell membrane fraction); details: IC50 (nM), concentration inhibiting 50% of Cacna2d1/GBP binding, 3H-GBP 4.5 nM, 4° C.
Sequence (P54289 25-1091 isoform P54289-2 limits assumed): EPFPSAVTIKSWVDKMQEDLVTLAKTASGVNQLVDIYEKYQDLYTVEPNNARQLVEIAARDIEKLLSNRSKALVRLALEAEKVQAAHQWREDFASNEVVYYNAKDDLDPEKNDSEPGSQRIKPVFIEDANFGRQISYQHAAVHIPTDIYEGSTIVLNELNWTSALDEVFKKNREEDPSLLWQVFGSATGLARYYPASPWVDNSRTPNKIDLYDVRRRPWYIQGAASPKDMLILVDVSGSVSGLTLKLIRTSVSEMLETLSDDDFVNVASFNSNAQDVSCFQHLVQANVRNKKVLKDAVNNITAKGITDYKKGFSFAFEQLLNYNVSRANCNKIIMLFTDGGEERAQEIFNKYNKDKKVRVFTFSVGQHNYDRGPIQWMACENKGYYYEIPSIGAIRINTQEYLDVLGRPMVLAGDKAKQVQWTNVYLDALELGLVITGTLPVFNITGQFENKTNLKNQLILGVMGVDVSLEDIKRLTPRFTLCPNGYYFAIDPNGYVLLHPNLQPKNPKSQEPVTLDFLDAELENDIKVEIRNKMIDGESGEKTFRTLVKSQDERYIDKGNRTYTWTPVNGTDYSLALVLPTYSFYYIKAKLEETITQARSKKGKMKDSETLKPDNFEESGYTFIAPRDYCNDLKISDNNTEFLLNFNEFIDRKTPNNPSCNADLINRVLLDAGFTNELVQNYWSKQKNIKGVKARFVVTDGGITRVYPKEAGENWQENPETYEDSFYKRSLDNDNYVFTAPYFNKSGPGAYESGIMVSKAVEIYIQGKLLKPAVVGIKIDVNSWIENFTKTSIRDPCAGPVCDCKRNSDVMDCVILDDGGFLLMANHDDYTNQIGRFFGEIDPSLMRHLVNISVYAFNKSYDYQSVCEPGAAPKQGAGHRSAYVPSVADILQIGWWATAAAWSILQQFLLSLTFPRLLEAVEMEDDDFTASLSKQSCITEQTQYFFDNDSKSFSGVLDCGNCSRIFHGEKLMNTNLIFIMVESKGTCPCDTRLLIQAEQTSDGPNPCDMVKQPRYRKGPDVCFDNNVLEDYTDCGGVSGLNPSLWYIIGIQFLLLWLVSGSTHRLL
Listing of entries alongside the reported IC50.
Observable: IC50 (nM)

Molecule: CCCC1=C[C@H]2[C@@H](C1)C[C@@]2(CN)CC(=O)O (racemic)
Number: 32
//
Molecule: CCC1=C[C@H]2[C@@H](C1)C[C@@]2(CN)CC(=O)O (single isomer, unassigned) [Example 23]
Number: 41
//
Molecule: CCC1=C[C@@H]2[C@H](C1)C[C@]2(CN)CC(=O)O [Example 22, p-toluenesulfonate]
Number: 10
//
Molecule: C[C@]12C=CC[C@H]1C[C@]2(CN)CC(=O)O (racemic)
Number: 65
